Procedure text: Tissue distribution of SHR9146 in mice after oral gavage of 40 mg/kg
Type: in vivo, ICR mice
Measurement parameters: female, ICR, mouse, thyroid gland, po, 40 mg/kg, female, 3 h, 40 mg/kg oral gavage, Mean (n=3); read-out: SHR9146 concentration in thyroid gland

Structure	concentration at 3 h, ng/g
OCCn1cc(-c2ccc(N3CCC([C@H]4c5c(F)cccc5-c5cncn54)CC3)cc2)cn1	6940

---

Procedure text: Plasma pharmacokinetics of SHR9146 in mice (LC-MS/MS, non-compartmental analysis)
Type: in vivo, ICR mice
Measurement parameters: both sexes, ICR, mouse, plasma, po, 80 mg/kg, single oral doses 20, 40, 80 mg/kg; mice; read-out: absolute (oral) bioavailability, range over single oral doses

Compound	bioavailability
OCCn1cc(-c2ccc(N3CCC([C@H]4c5c(F)cccc5-c5cncn54)CC3)cc2)cn1 [SHR9146]	40.2 to 64.7%

Origin of measurements: paper PMC10410440
